Test system: corneal epithelium of living rats
Assay: Adhesion of fluorescently labelled DNA amphiphile NP eye drops to the cornea of living rats
Type: in vivo, rat
Conditions: 30 min after a single 30 μL eye drop, 20 μM, conscious rats
[C12U] = 2'-deoxyuridine carrying a dodecyne (lipid) modification
Readings of Number of NP positive eyes out of total number eyes for the listed substances

[[record]]
substance = "U6T-20: lipid modified oligonucleotide UUUUUUGCGGATTCGTCTGC (5′→3′), U = dodecyne modified deoxyuridine (DNA, [C12U] at 1, 2, 3, 4, 5, 6, backbone and methylation of C not given here)"
tested_system = "corneal epithelium of living rats"
assay_value = "2/2"

[[record]]
substance = "U4T-18: lipid modified oligonucleotide UUUUGCGGATTCGTCTGC (5′→3′), U = dodecyne modified deoxyuridine (DNA, [C12U] at 1, 2, 3, 4, backbone and methylation of C not given here)"
tested_system = "corneal epithelium of living rats"
assay_value = "4/5"


Consider now this further substance.
## Input Param item = U6T-12: lipid modified oligonucleotide UUUUUUGGATTC (5′→3′), U = dodecyne modified deoxyuridine (DNA, [C12U] at 1, 2, 3, 4, 5, 6, backbone and methylation of C not given here) ; retrieve measured Number of NP positive eyes out of total number eyes.
## Output 3/3

====

Readings of Number of NP positive eyes out of total number eyes for the listed substances
Tested on: corneal epithelium of living rats
Experiment: Adhesion of fluorescently labelled DNA amphiphile NP eye drops to the cornea of living rats
Type: in vivo, rat
Conditions: 2 hours after a single 30 μL eye drop, 20 μM, conscious rats
[C12U] = 2'-deoxyuridine carrying a dodecyne (lipid) modification

[[record]]
substance = "U6T-20: lipid modified oligonucleotide UUUUUUGCGGATTCGTCTGC (5′→3′), U = dodecyne modified deoxyuridine (DNA, [C12U] at 1, 2, 3, 4, 5, 6, backbone and methylation of C not given here)"
assay_value = "1/3"


## Input Param item = U4T-12: lipid modified oligonucleotide UUUUGCGGATTC (5′→3′), U = dodecyne modified deoxyuridine; forms micellar NPs (DNA, [C12U] at 1, 2, 3, 4, backbone and methylation of C not given here; forms micellar nanoparticles) ; retrieve measured Number of NP positive eyes out of total number eyes.
## Output 4/6

## Input Param item = U6T-12: lipid modified oligonucleotide UUUUUUGGATTC (5′→3′), U = dodecyne modified deoxyuridine (DNA, [C12U] at 1, 2, 3, 4, 5, 6, backbone and methylation of C not given here) ; retrieve measured Number of NP positive eyes out of total number eyes.
## Output 1/4

====

Readings of Number of NP positive eyes out of total number eyes for the listed substances
Test system: corneal epithelium of living rats
Assay: Adhesion of fluorescently labelled DNA amphiphile NP eye drops to the cornea of living rats
Format: in vivo, rat
Conditions: 2 hours after a single 30 μL eye drop, 20 μM, conscious rats
[C12U] = 2'-deoxyuridine carrying a dodecyne (lipid) modification

[[record]]
substance = "U4T-18: lipid modified oligonucleotide UUUUGCGGATTCGTCTGC (5′→3′), U = dodecyne modified deoxyuridine (DNA, [C12U] at 1, 2, 3, 4, backbone and methylation of C not given here)"
assay_value = "0/4"


## Input Param item = U2T-12: lipid modified oligonucleotide UUTGGCGGATTC (5′→3′), U = dodecyne modified deoxyuridine; forms micellar NPs (DNA, [C12U] at 1, 2, backbone and methylation of C not given here; forms micellar nanoparticles) ; retrieve measured Number of NP positive eyes out of total number eyes.
## Output 0/4

====

Readings of Number of NP positive eyes out of total number eyes for the listed substances
System: corneal epithelium of living rats
Assay: Adhesion of fluorescently labelled DNA amphiphile NP eye drops to the cornea of living rats
Format: in vivo, rat
Details: 24 hours after a single 30 μL eye drop, 20 μM, conscious rats
[C12U] = 2'-deoxyuridine carrying a dodecyne (lipid) modification

[[record]]
substance = "U4T-12: lipid modified oligonucleotide UUUUGCGGATTC (5′→3′), U = dodecyne modified deoxyuridine; forms micellar NPs (DNA, [C12U] at 1, 2, 3, 4, backbone and methylation of C not given here; forms micellar nanoparticles)"
assay_value = "0/4"

[[record]]
substance = "U2T-12: lipid modified oligonucleotide UUTGGCGGATTC (5′→3′), U = dodecyne modified deoxyuridine; forms micellar NPs (DNA, [C12U] at 1, 2, backbone and methylation of C not given here; forms micellar nanoparticles)"
assay_value = "0/4"

[[record]]
substance = "U4T-18: lipid modified oligonucleotide UUUUGCGGATTCGTCTGC (5′→3′), U = dodecyne modified deoxyuridine (DNA, [C12U] at 1, 2, 3, 4, backbone and methylation of C not given here)"
assay_value = "0/4"


## Input Param item = U6T-12: lipid modified oligonucleotide UUUUUUGGATTC (5′→3′), U = dodecyne modified deoxyuridine (DNA, [C12U] at 1, 2, 3, 4, 5, 6, backbone and methylation of C not given here) ; retrieve measured Number of NP positive eyes out of total number eyes.
## Output 0/1

## Input Param item = U6T-20: lipid modified oligonucleotide UUUUUUGCGGATTCGTCTGC (5′→3′), U = dodecyne modified deoxyuridine (DNA, [C12U] at 1, 2, 3, 4, 5, 6, backbone and methylation of C not given here) ; retrieve measured Number of NP positive eyes out of total number eyes.
## Output 0/3

====

Readings of Number of NP positive eyes out of total number eyes for the listed substances
System: corneal epithelium of living rats
Test: Adhesion of fluorescently labelled DNA amphiphile NP eye drops to the cornea of living rats
Format: in vivo, rat
Conditions: 30 min after a single 30 μL eye drop, 20 μM, conscious rats
[C12U] = 2'-deoxyuridine carrying a dodecyne (lipid) modification

[[record]]
substance = "U2T-12: lipid modified oligonucleotide UUTGGCGGATTC (5′→3′), U = dodecyne modified deoxyuridine; forms micellar NPs (DNA, [C12U] at 1, 2, backbone and methylation of C not given here; forms micellar nanoparticles)"
assay_value = "2/4"


Consider now this further substance.
## Input Record U4T-12: lipid modified oligonucleotide UUUUGCGGATTC (5′→3′), U = dodecyne modified deoxyuridine; forms micellar NPs (DNA, [C12U] at 1, 2, 3, 4, backbone and methylation of C not given here; forms micellar nanoparticles) : what is its Number of NP positive eyes out of total number eyes with corneal epithelium of living rats?
## Output 6/6

FYI, the data here is from patent US10285939B2.
